Molecular target: SpCyk3
Test: SPOT peptide array binding signal intensity (averaged, normalized) (arbitrary units (background-subtracted, floor 0; scale differs between SH3 domains)); higher = stronger binding of the SH3 domain to the peptide
value type: SPOT peptide array binding signal intensity

Record GPPPPLPPPLFPSSS . Reported SPOT peptide array binding signal intensity: ≤ 0

The reported SPOT peptide array binding signal intensity of the binder VPVAPPPPPASLGQS was ≤ 0

Form field SPOT peptide array binding signal intensity, entry HPRFVSPRIPSRIVK : 4

SPOT peptide array binding signal intensity for APPPPPRRATPEKKP is 3

Recorded SPOT peptide array binding signal intensity (binder RKNRAPPQRPRFNRD ): 10

In plain terms, RRRIAYPFYPFKKLG has a documented SPOT peptide array binding signal intensity of ≤ 0

Reported SPOT peptide array binding signal intensity of KFIPSRPAPKPPSSA : ≤ 0

Query DLPLPDLPPEPPTEL yields SPOT peptide array binding signal intensity of ≤ 0

// field: SPOT peptide array binding signal intensity; key: PSPSSSPPPIPKTAN ; value = 1

For this binder ( FFRRSELYLPNSSKA ), measured SPOT peptide array binding signal intensity is ≤ 0

SPOT peptide array binding signal intensity recorded for this binder, KKIRLIFTYPSTVGR , is 92

Record PPLPRAPPVPPATFE . Reported SPOT peptide array binding signal intensity: ≤ 0

Lab note: measured SPOT peptide array binding signal intensity of RAPPPVPKKPSSRIA was 5

Looking up RPPRPPPKPLHLRTE , I see its SPOT peptide array binding signal intensity listed as ≤ 0

Entry RSRRSSFAYPQQVAI , SPOT peptide array binding signal intensity reported as 1.5
